tested on: SD rats; test: Assay for the effect on urinary glucose excretion; type: in vivo, rat; settings: overnight fasted male SD rats, oral 1 mg/kg, urine collected for 24 hours
MEASURED_METRIC: Amount of urinary excretion of glucose in 24 hours
Please answer in the form of a number followed by its unit of measurement.

CCOc1ccc(Cn2cc([C@@H]3O[C@H](CO)[C@@H](O)[C@H](O)[C@H]3O)c3cccc(F)c32)cc1 :: 251 mg/200 g body weight

Ask: So what does the record say about Amount of urinary excretion of glucose in 24 hours for COc1ccc(Cn2cc([C@@H]3O[C@H](CO)[C@@H](O)[C@H](O)[C@H]3O)c3c(C)cccc32)c(F)c1 ?
Result: 36 mg/200 g body weight

Ask: How about this compound: COc1ccc(Cn2cc([C@@H]3O[C@H](CO)[C@@H](O)[C@H](O)[C@H]3O)c3cc(C)cc(F)c32)c(F)c1
Result: 507 mg/200 g body weight

Ask: Check Cc1cc(Cl)c2c(c1)c([C@@H]1O[C@H](CO)[C@@H](O)[C@H](O)[C@H]1O)cn2Cc1ccc(OC(F)F)cc1 too.
Result: 1229 mg/200 g body weight

Ask: Queued: Cc1ccc(Cn2cc([C@@H]3O[C@H](CO)[C@@H](O)[C@H](O)[C@H]3O)c3cc(C)cc(F)c32)cc1
Result: 275 mg/200 g body weight

Ask: Ok, now CCc1ccc(Cn2cc([C@@H]3O[C@H](CO)[C@@H](O)[C@H](O)[C@H]3O)c3cc(C)ccc32)cc1
Result: 122 mg/200 g body weight

Ask: Repeat with COc1ccc(Cn2cc([C@@H]3O[C@H](CO)[C@@H](O)[C@H](O)[C@H]3O)c3c(C)cccc32)cc1
Result: 27 mg/200 g body weight

Ask: Cool, now COc1ccc(Cn2cc([C@@H]3O[C@H](CO)[C@@H](O)[C@H](O)[C@H]3O)c3cccc(Cl)c32)cc1
Result: 532 mg/200 g body weight

Ask: Query COc1ccc(Cn2cc([C@@H]3O[C@H](CO)[C@@H](O)[C@H](O)[C@H]3O)c3c(C)ccc(Cl)c32)cc1 next
Result: 37 mg/200 g body weight

====

# key: entry, value: Amount of urinary excretion of glucose in 24 hours
test system: SD rats; assay: Assay for the effect on urinary glucose excretion; format: in vivo, rat; conditions: overnight fasted male SD rats, oral 1 mg/kg, urine collected for 24 hours
Numbers only here, please. The scale is mg/200 g body weight.

CCc1ccc(Cn2cc([C@@H]3O[C@H](CO)[C@@H](O)[C@H](O)[C@H]3O)c3cc(C)cc(F)c32)cc1 :: 945
Cc1ccc(Cn2cc([C@@H]3O[C@H](CO)[C@@H](O)[C@H](O)[C@H]3O)c3cccc(Cl)c32)cc1 :: 173
Cc1cc(F)c2c(c1)c([C@@H]1O[C@H](CO)[C@@H](O)[C@H](O)[C@H]1O)cn2Cc1ccc(CCO)cc1 :: 47

Ask: What does the data say about its Amount of urinary excretion of glucose in 24 hours? Entry: CCOc1ccc(Cn2cc([C@@H]3O[C@H](CO)[C@@H](O)[C@H](O)[C@H]3O)c3cc(C)cc(F)c32)cc1
Result: 784

Ask: Also check COc1ccc(Cn2cc([C@@H]3O[C@H](CO)[C@@H](O)[C@H](O)[C@H]3O)c3c(C)ccc(F)c32)cc1
Result: 12

Ask: Consider next the compound CCc1ccc(Cn2cc([C@@H]3O[C@H](CO)[C@@H](O)[C@H](O)[C@H]3O)c3cccc(Cl)c32)cc1 in the same way.
Result: 517

Ask: Try this compound next: Cc1ccc(Cn2cc([C@@H]3O[C@H](CO)[C@@H](O)[C@H](O)[C@H]3O)c3cc(C)cc(Cl)c32)cc1
Result: 933

Ask: Now the same for CCOc1ccc(Cn2cc([C@@H]3O[C@H](CO)[C@@H](O)[C@H](O)[C@H]3O)c3cccc(Cl)c32)c(F)c1
Result: 18

Ask: Could you do the same for OCCc1ccc(Cn2cc([C@@H]3O[C@H](CO)[C@@H](O)[C@H](O)[C@H]3O)c3cccc(F)c32)cc1 , please?
Result: 17

====

system: SD rats; assay: Assay for the effect on urinary glucose excretion; type: in vivo, rat; conditions: overnight fasted male SD rats, oral 1 mg/kg, urine collected for 24 hours
In this section we review reported Amount of urinary excretion of glucose in 24 hours values for a set of compounds.
The reply should be a number in mg/200 g body weight, with the unit left off.

Some compounds with recorded Amount of urinary excretion of glucose in 24 hours:
COc1ccc(Cn2cc([C@@H]3O[C@H](CO)[C@@H](O)[C@H](O)[C@H]3O)c3cc(C)cc(C)c32)cc1 [Example 114] :: 520
CCOc1ccc(Cn2cc([C@@H]3O[C@H](CO)[C@@H](O)[C@H](O)[C@H]3O)c3cc(C)cc(Cl)c32)cc1 [Example 158] :: 1708

Here is the next item to consider.
Ask: For COc1ccc(Cn2cc([C@@H]3O[C@H](CO)[C@@H](O)[C@H](O)[C@H]3O)c3cc(C)cc(Cl)c32)c(F)c1 [Example 106] , what is its reported Amount of urinary excretion of glucose in 24 hours?
Result: 1910

====

test system: SD rats; assay: Assay for the effect on urinary glucose excretion; assay type: in vivo, rat; conditions: overnight fasted male SD rats, oral 1 mg/kg, urine collected for 24 hours
MEASURED_METRIC: Amount of urinary excretion of glucose in 24 hours
Please append the unit to your numeric answer.

// known answers, use as guide
COc1ccc(Cn2cc([C@@H]3O[C@H](CO)[C@@H](O)[C@H](O)[C@H]3O)c3c(C)ccc(Cl)c32)c(F)c1 :: 50 mg/200 g body weight
CC(C)Oc1ccc(Cn2cc([C@@H]3O[C@H](CO)[C@@H](O)[C@H](O)[C@H]3O)c3cccc(Cl)c32)cc1 :: 295 mg/200 g body weight
CCOc1ccc(Cn2cc([C@@H]3O[C@H](CO)[C@@H](O)[C@H](O)[C@H]3O)c3cccc(Cl)c32)cc1 :: 733 mg/200 g body weight
CCc1ccc(Cn2cc([C@@H]3O[C@H](CO)[C@@H](O)[C@H](O)[C@H]3O)c3cccc(F)c32)cc1 :: 98 mg/200 g body weight
COc1ccc(Cn2cc([C@@H]3O[C@H](CO)[C@@H](O)[C@H](O)[C@H]3O)c3cc(C)cc(Cl)c32)cc1 :: 1693 mg/200 g body weight

Ask: Form entry - test system: SD rats; read-out: Amount of urinary excretion of glucose in 24 hours; compound: CCc1ccc(Cn2cc([C@@H]3O[C@H](CO)[C@@H](O)[C@H](O)[C@H]3O)c3ccccc32)cc1
Result: 15 mg/200 g body weight

Ask: Now try Cc1cc(Cl)c2c(c1)c([C@@H]1O[C@H](CO)[C@@H](O)[C@H](O)[C@H]1O)cn2Cc1ccc(O)cc1 .
Result: 349 mg/200 g body weight

Ask: Can you check Cc1cc(F)c2c(c1)c([C@@H]1O[C@H](CO)[C@@H](O)[C@H](O)[C@H]1O)cn2Cc1ccc(O)cc1 next?
Result: 40 mg/200 g body weight

Ask: // query: CCc1ccc(Cn2cc([C@@H]3O[C@H](CO)[C@@H](O)[C@H](O)[C@H]3O)c3c(C)cccc32)cc1
Result: 182 mg/200 g body weight

Ask: Also COc1ccc(Cn2cc([C@@H]3O[C@H](CO)[C@@H](O)[C@H](O)[C@H]3O)c3cc(C)cc(F)c32)cc1 ?
Result: 588 mg/200 g body weight

Ask: And Cc1ccc2c(c1)c([C@@H]1O[C@H](CO)[C@@H](O)[C@H](O)[C@H]1O)cn2Cc1ccc(OC(C)C)cc1 ?
Result: 33 mg/200 g body weight

Ask: Entry to check: CCc1ccc(Cn2cc([C@@H]3O[C@H](CO)[C@@H](O)[C@H](O)[C@H]3O)c3c(C)ccc(F)c32)cc1
Result: 24 mg/200 g body weight

Ask: Next up: OCCc1ccc(Cn2cc([C@@H]3O[C@H](CO)[C@@H](O)[C@H](O)[C@H]3O)c3cccc(Cl)c32)cc1
Result: 54 mg/200 g body weight

Ask: Repeat for the following compound: COc1ccc(Cn2cc([C@@H]3O[C@H](CO)[C@@H](O)[C@H](O)[C@H]3O)c3cccc(Cl)c32)c(F)c1
Result: 629 mg/200 g body weight

Ask: Likewise for COc1ccc(Cn2cc([C@@H]3O[C@H](CO)[C@@H](O)[C@H](O)[C@H]3O)c3cccc(F)c32)cc1 ?
Result: 213 mg/200 g body weight

====

Property: Amount of urinary excretion of glucose in 24 hours; scope: individual compounds
tested on: SD rats; experiment: Assay for the effect on urinary glucose excretion; assay type: in vivo, rat; details: overnight fasted male SD rats, oral 1 mg/kg, urine collected for 24 hours
Numbers only here, please. The scale is mg/200 g body weight.

Some solved cases for reference:
CCc1ccc(Cn2cc([C@@H]3O[C@H](CO)[C@@H](O)[C@H](O)[C@H]3O)c3cccc(C)c32)cc1 :: 76
CC(C)Oc1ccc(Cn2cc([C@@H]3O[C@H](CO)[C@@H](O)[C@H](O)[C@H]3O)c3cccc(F)c32)cc1 :: 11

// moving on: another record for Amount of urinary excretion of glucose in 24 hours
Ask: Item under review: OC[C@H]1O[C@@H](c2cn(Cc3ccc(OC(F)F)cc3)c3c(F)cccc23)[C@H](O)[C@@H](O)[C@@H]1O . Reported Amount of urinary excretion of glucose in 24 hours?
Result: 24
